Known RF, Methanol/Water/Hydrochloric acid (conc.), mobile phase I of a selection of compounds
method notes: Reverse-phase thin-layer chromatographic lipophilicity (RF, RM0)
Type: physicochemical
condition context: RP-18 silica; I = 90%MeOH/5%H2O/5%HCl
measurement kind: RF, Methanol/Water/Hydrochloric acid (conc.), mobile phase I

| compound | endpoint value |
| --- | --- |
| FC(F)(F)c1ccc2c(NCCCNCC34CC5CC(CC(C5)C3)C4)ccnc2c1 | 0.73 |
| Clc1ccc2c(N3CCN(CC45CC6CC(CC(C6)C4)C5)CC3)ccnc2c1 | 0.67 |
| Clc1ccc2c(NCCCNCC34CC5CC(CC(C5)C3)C4)ccnc2c1 | 0.73 |
| FC(F)(F)c1ccc2c(NCCNCC34CC5CC(CC(C5)C3)C4)ccnc2c1 | 0.73 |
| Clc1ccc2c(NCCCCNCC34CC5CC(CC(C5)C3)C4)ccnc2c1 | 0.71 |
| Clc1ccc2c(N3CCN(CCC45CC6CC(CC(C6)C4)C5)CC3)ccnc2c1 | 0.68 |
| Clc1ccc2c(NCCNCCC34CC5CC(CC(C5)C3)C4)ccnc2c1 | 0.69 |
| Clc1ccc2c(NCCCCCCNCC34CC5CC(CC(C5)C3)C4)ccnc2c1 | 0.72 |
| CC(CCNCC12CC3CC(CC(C3)C1)C2)Nc1ccnc2cc(C(F)(F)F)ccc12 (centres unmarked) | 0.72 |
| Clc1ccc2c(NCCCCCN(CCC34CC5CC(CC(C5)C3)C4)CCC34CC5CC(CC(C5)C3)C4)ccnc2c1 | 0.43 |
| CC(CCNCC12CC3CC(CC(C3)C1)C2)Nc1ccnc2cc(Cl)ccc12 (centres unmarked) | 0.71 |

meta.source: paper PMC9229919
